Values from the supplement of paper PMC8728848

# system name: Neu5Ac(a2-6)Gal(b1-4)GlcNAc(b1-3)Gal(b1-4)GlcNAc(b1-3)Gal(b1-4)GlcNAc
# assay info: glycan array binding signal (z-score within array); higher = stronger binding
# measurement setup: glycan notation: IUPAC condensed, linker removed
Many of the other results were omitted from the sample, so the strongest signals are more common in it than they were.
measured parameter: glycan array binding signal (z-score)
Number only, please.

SBD-G4S3-Fc (protein) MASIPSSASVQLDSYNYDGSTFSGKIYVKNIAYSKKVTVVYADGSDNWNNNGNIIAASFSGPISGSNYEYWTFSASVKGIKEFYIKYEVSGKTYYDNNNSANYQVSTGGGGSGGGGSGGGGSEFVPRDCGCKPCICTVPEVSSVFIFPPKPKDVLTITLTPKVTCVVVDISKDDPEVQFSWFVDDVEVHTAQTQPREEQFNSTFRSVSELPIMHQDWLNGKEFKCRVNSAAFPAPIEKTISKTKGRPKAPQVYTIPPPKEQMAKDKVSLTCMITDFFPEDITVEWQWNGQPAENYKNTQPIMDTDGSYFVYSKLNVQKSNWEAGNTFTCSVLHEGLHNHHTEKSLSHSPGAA ... 0.075

The binder listed as BDCA-2 (Homo sapiens), Q8WTT0 (protein) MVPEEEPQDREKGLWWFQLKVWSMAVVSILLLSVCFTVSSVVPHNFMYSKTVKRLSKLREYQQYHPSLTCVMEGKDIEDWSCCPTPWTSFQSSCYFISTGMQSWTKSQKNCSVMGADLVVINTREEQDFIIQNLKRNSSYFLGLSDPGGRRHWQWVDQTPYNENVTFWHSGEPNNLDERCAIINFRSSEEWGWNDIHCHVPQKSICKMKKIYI has a reported glycan array binding signal (z-score) of -0.186

The binder listed as MRCL (Homo sapiens), NP_872425.1 (protein) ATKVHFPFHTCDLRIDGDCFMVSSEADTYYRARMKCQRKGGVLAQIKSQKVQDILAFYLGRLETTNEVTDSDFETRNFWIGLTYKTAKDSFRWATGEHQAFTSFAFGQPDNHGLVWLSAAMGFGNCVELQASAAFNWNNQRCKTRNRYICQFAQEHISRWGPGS has a reported glycan array binding signal (z-score) of -0.367
